assay: MELAS cybrid and Rieske KO viability enhancers – cell-based, MELAS cybrids, Rieske KO mouse fibroblasts, CellTiter-Glo, primary screen (AID 1508586); settings: MELAS cybrid survival, low glucose, CellTiter-Glo 48 h; hits give high values; note: test concentration not given here
Quick rule for you: z-score at -0.3 or higher means rule met, lower means rule not met.

{"compound": "C=CCn1nc(C(=O)N2CCCCCC2)c2c1CCC(NCc1cc(-c3ccccc3)on1)C2 (stereo not given)", "class name": "rule met"}
{"compound": "CC(C)/C=C/CNc1cc(C(=O)NCc2cn3ccccc3n2)cc(S(=O)(=O)NC(C)C)c1", "class name": "rule met"}
{"compound": "Cc1ccccc1CN1C2=NCCN2C(=O)C2=C1CCN(Cc1ccccc1)C2", "class name": "rule not met"}
{"compound": "COc1cccc2ncn(Cc3nc4ccccc4o3)c(=O)c12", "class name": "rule met"}
{"compound": "O=C(O)CNC(=O)c1cccc(O)c1", "class name": "rule met"}
{"compound": "Cc1cc(-c2csc(Nc3ccc(C(=O)O)c(O)c3)n2)ccc1F", "class name": "rule met"}
{"compound": "Cn1c(=O)c(F)c(Nc2ccc(I)cc2F)c2c(=O)n(CC(O)CO)cnc21 (stereo not given)", "class name": "rule not met"}
{"compound": "CC(=O)OC1C=C2C(Cl)=C[C@@H]3[C@H](CC[C@@]4(C)[C@H]3CC[C@]4(OC(C)=O)C(C)=O)[C@@]2(C)CC1 (stereo not given in full)", "class name": "rule met"}
{"compound": "CC(C)CC(NC(=O)C(Cc1ccccc1)NC(=O)c1cnccn1)B(O)O (stereo not given)", "class name": "rule not met"}
{"compound": "CCCc1ccc(OCC(=O)N(Cc2nc(-c3cccnc3)no2)C(C)C)cc1", "class name": "rule not met"}

Entry source: PubChem BioAssay
